Provide the recorded ED50 for the entries that follow.
# Test system: Rattus norvegicus
# assayMethodText: Ability to antagonize metrazole-induced seizures (clonic and tonic) in rats after intraperitoneal injection
# conditionSummary: ip

Prompt: Find the recorded ED50 belonging to `CC(C)n1c(=O)c2c(-c3ccc(F)cc3)ncn2c2ccc(Cl)cc21` and report it.
Completion: > 50 mg/kg

Prompt: ED50 lookup needed for `CC(C)n1c(=O)c2c(-c3ccccc3)ncn2c2ccc(F)cc21` , thanks.
Completion: > 50 mg/kg

Prompt: What value of ED50 has been recorded for this entry: `CC(C)n1c(=O)c2c(-c3ccccc3)ncn2c2ccccc21`
Completion: > 50 mg/kg

Each recorded value in this set is attributed to ChEMBL document CHEMBL1129651.
